tested_system: SIRT1 (Homo sapiens, UniProt Q96EB6);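 note: recombinant His-tagged human SIRT1 deacetylating p53-derived acetylated peptide, detected by fluorescence polarization after trypsin cleavage, signal inversely tracking deacetylase activity, compared against activity without test compound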
Sequence (Q96EB6 1-747): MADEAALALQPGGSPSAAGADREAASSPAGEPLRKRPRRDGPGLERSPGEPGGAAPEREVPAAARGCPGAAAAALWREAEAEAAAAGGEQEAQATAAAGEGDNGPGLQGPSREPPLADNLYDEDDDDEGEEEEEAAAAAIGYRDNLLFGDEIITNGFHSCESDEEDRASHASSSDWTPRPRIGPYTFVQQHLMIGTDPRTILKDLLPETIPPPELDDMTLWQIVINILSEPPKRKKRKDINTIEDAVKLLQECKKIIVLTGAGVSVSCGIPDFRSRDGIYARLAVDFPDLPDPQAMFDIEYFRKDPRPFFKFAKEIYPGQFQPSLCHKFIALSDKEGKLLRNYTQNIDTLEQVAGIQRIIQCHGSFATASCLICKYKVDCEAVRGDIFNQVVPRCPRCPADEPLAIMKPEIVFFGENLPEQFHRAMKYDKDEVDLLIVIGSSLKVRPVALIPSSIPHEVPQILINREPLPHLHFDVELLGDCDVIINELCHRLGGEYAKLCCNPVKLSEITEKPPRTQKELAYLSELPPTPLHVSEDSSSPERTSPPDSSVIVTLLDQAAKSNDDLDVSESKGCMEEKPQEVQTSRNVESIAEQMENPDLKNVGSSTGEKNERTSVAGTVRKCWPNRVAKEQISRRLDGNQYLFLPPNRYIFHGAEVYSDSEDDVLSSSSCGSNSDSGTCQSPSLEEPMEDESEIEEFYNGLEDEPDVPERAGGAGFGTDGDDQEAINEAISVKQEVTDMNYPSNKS
test_readout: IC50

Cc1ccc2nc(-c3cccs3)cc(C(=O)N3CCOCC3)c2c1 : > 150 µM

Report IC50 for "Cc1ccc2nc(-c3ccccc3)cc(C(=O)NCCCN3CCOCC3)c2c1" > 150 µM
